Assay: Half life in human serum
Assay type: ADME, cell-free
measured-attribute: half-life
Show the value, then the unit it is measured in.

Task: Which half-life value is on record for C[C@@H](c1ncncc1F)[C@](O)(Cn1cncn1)c1ccc(F)cc1F ?
Result: 6.5 h

====

Test: Drug level in New Zealand White rabbit eye aqueous humor at 25 ug/25 ul administered as intracameral injection measured after 60 mins
Type: ADME, tissue-based, Oryctolagus cuniculus
Settings: topical or ocular, read-out: Drug uptake
measured-attribute: concentration at 1 h (ng/mL)
The figure you give is taken to be in ng/mL; do not add the unit.

Task: Which concentration at 1 h value is on record for C[C@@H](c1ncncc1F)[C@](O)(Cn1cncn1)c1ccc(F)cc1F ?
Result: 5100

====

Assay: Drug level in New Zealand White rabbit eye aqueous humor at 25 ug/25 ul administered as intracameral injection measured after 180 mins
Format: ADME, tissue-based, Oryctolagus cuniculus
Details: topical or ocular, read-out: Drug uptake
measured-attribute: concentration at 3 h (ng/mL)
The figure you give is taken to be in ng/mL; do not add the unit.

Task: Which concentration at 3 h value is on record for C[C@@H](c1ncncc1F)[C@](O)(Cn1cncn1)c1ccc(F)cc1F [VORICONAZOLE] ?
Result: 150

====

Assay: Drug level in New Zealand White rabbit eye aqueous humor at 25 ug/25 ul administered as intracameral injection measured after 45 mins
Type: ADME, tissue-based, Oryctolagus cuniculus
Details: topical or ocular, read-out: Drug uptake
measured-attribute: concentration at 0.75 h (ng/mL)
The figure you give is taken to be in ng/mL; do not add the unit.

Task: Which concentration at 0.75 h value is on record for C[C@@H](c1ncncc1F)[C@](O)(Cn1cncn1)c1ccc(F)cc1F [VORICONAZOLE] ?
Result: 7730

====

Test: Drug level in New Zealand White rabbit eye aqueous humor at 25 ug/25 ul administered as intracameral injection measured after 150 mins
Assay type: ADME, tissue-based, Oryctolagus cuniculus
Conditions: topical or ocular, read-out: Drug uptake
measured-attribute: concentration at 2.5 h (ng/mL)
The figure you give is taken to be in ng/mL; do not add the unit.

Task: Which concentration at 2.5 h value is on record for C[C@@H](c1ncncc1F)[C@](O)(Cn1cncn1)c1ccc(F)cc1F [VORICONAZOLE] ?
Result: 390

====

Assay: Drug level in New Zealand White rabbit eye aqueous humor at 25 ug/25 ul administered as intracameral injection measured after 120 mins
Type: ADME, tissue-based, Oryctolagus cuniculus
Conditions: topical or ocular, read-out: Drug uptake
measured-attribute: concentration at 2 h (ng/mL)
The figure you give is taken to be in ng/mL; do not add the unit.

Task: Which concentration at 2 h value is on record for C[C@@H](c1ncncc1F)[C@](O)(Cn1cncn1)c1ccc(F)cc1F ?
Result: 1400

====

Test: Half life in New Zealand White rabbit eye aqueous humor at 25 ug/25 ul administered as intracameral injection
Assay type: ADME, tissue-based, Oryctolagus cuniculus, Aqueous humor of eyeball
Details: topical or ocular
measured-attribute: half-life (min)
The figure you give is taken to be in min; do not add the unit.

Task: Which half-life value is on record for C[C@@H](c1ncncc1F)[C@](O)(Cn1cncn1)c1ccc(F)cc1F ?
Result: 22

====

Experiment: Half life in New Zealand White rabbit eye administered as intracameral injection
Type: ADME, tissue-based, Oryctolagus cuniculus
Conditions: topical or ocular
measured-attribute: half-life (min)
The figure you give is taken to be in min; do not add the unit.

Task: Which half-life value is on record for NCC[C@H](O)C(=O)N[C@@H]1C[C@H](N)[C@@H](O[C@H]2O[C@H](CN)[C@@H](O)[C@H](O)[C@H]2O)[C@H](O)[C@H]1O[C@H]1O[C@H](CO)[C@@H](O)[C@H](N)[C@H]1O [AMIKACIN] ?
Result: 34.8
